Assign IC50 to each entry below.
tested.on: Kappa-type opioid receptor (Mus musculus, UniProt P33534)
Sequence (P33534 whole entry): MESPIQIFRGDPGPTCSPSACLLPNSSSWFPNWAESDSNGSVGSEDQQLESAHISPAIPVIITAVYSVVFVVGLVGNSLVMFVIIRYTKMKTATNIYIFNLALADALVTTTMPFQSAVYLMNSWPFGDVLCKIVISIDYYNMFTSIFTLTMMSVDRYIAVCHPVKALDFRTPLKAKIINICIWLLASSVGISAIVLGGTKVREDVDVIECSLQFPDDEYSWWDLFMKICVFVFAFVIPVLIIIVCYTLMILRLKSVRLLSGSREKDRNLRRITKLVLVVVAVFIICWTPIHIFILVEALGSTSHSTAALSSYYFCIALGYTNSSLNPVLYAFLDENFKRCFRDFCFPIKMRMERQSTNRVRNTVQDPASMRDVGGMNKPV
experimental.protocol: Inhibitory activity against Opioid receptor kappa 1 in electrically stimulated mouse vas deferens (MVD) preparation.
Just the number plus its unit, please.

Dear colleague, could you please provide IC50 for the compounds listed below?
1. CN(C(=O)Cc1ccc(Cl)c(Cl)c1)[C@H](CN1CCCC1)c1cccc(NC(=O)C/N=C(S)/N=C2\C=CC(=C3c4ccc(O)cc4Oc4cc(O)ccc43)C(C(=O)O)=C2)c1
2. CN(C(=O)Cc1ccc(Cl)c(Cl)c1)[C@H](CN1CCCC1)c1cccc(NC(=S)Nc2ccc(-c3c4ccc(=O)cc-4oc4cc(O)ccc34)c(C(=O)O)c2)c1
3. CN(C(=O)Cc1ccc(Cl)c(Cl)c1)C(CN1CCCC1)c1ccc(NC(=O)C/N=C(S)/N=C2\C=CC(=C3c4ccc(O)cc4Oc4cc(O)ccc43)C(C(=O)O)=C2)cc1 (stereo not drawn)

1.2 nM
1.2 nM
102 nM

---

tested.on: UniProt:P33534
experimental.protocol: Inhibitory activity against Opioid receptor kappa 1 in electrically stimulated mouse vas deferens (MVD) preparation.
pIC50: −log10 of the molar value.
// label = Criterion met if pIC50 is not less than 8, otherwise Criterion not met

[
  {
    "molecule": "CN(C(=O)Cc1ccc(Cl)c(Cl)c1)[C@H](CN1CCCC1)c1cccc(NC(=O)CNC(=O)C/N=C(S)/N=C2\\C=CC(=C3c4ccc(O)cc4Oc4cc(O)ccc43)C(C(=O)O)=C2)c1",
    "discrete.label": "Criterion met"
  }
]

# bool: pIC50 of CN(C(=O)Cc1ccc(Cl)c(Cl)c1)C(CN1CCCC1)c1ccc(NC(=O)CNC(=O)C/N=C(S)\N=C2/C=CC(=C3c4ccc(O)cc4Oc4cc(O)ccc43)C(C(=O)O)=C2)cc1 (stereo not given) >= 8
Criterion not met

# bool: pIC50 of CN(C(=O)Cc1ccc(Cl)c(Cl)c1)C(CN1CCCC1)c1ccc(NC(=O)CNC(=O)CNC(=O)CNC(=O)C/N=C(S)\N=C2/C=CC(=C3c4ccc(O)cc4Oc4cc(O)ccc43)C(C(=O)O)=C2)cc1 (stereo not given) >= 8
Criterion not met

---

tested.on: Kappa-type opioid receptor (Cavia porcellus, UniProt P41144)
Sequence (P41144 whole entry): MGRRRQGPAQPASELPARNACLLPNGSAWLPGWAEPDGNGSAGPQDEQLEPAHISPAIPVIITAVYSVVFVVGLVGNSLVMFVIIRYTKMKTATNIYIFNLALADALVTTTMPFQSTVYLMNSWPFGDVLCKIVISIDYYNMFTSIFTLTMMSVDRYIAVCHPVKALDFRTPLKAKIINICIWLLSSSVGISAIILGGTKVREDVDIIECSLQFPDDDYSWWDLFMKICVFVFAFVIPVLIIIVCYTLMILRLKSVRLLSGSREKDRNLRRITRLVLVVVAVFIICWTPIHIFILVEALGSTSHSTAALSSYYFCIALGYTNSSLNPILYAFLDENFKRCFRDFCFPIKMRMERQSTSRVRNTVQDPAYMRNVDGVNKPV
experimental.protocol: Inhibitory activity against Opioid receptor kappa 1 in electrically stimulated guinea pig longitudinal ileal muscle (GPI) preparation.
Assign pIC50 to each entry below.
Answers are plain numbers, as −log10 of the molar value.

Examples from the recorded data:
[
  {
    "molecule": "CN(C(=O)Cc1ccc(Cl)c(Cl)c1)[C@H](CN1CCCC1)c1cccc(NC(=O)C/N=C(S)/N=C2\\C=CC(=C3c4ccc(O)cc4Oc4cc(O)ccc43)C(C(=O)O)=C2)c1",
    "tested.on": "Kappa-type opioid receptor (Cavia porcellus, UniProt P41144)",
    "pIC50": 9.77
  },
  {
    "molecule": "CN(C(=O)Cc1ccc(Cl)c(Cl)c1)[C@H](CN1CCCC1)c1cccc(NC(=S)Nc2ccc(-c3c4ccc(=O)cc-4oc4cc(O)ccc34)c(C(=O)O)c2)c1",
    "tested.on": "Kappa-type opioid receptor (Cavia porcellus, UniProt P41144)",
    "pIC50": 9.43
  }
]

Query molecule follows.
Give the value of pIC50 reported for the following: CN(C(=O)Cc1ccc(Cl)c(Cl)c1)C(CN1CCCC1)c1ccc(NC(=O)C/N=C(S)/N=C2\C=CC(=C3c4ccc(O)cc4Oc4cc(O)ccc43)C(C(=O)O)=C2)cc1 (stereo not drawn)
7.21

---

Species: Cavia porcellus
experimental.protocol: Percent recovery after treatment with 500 nM of NTX and removal of NTX by 40 washes with buffer using smooth guinea pig ileal muscle
Format: functional
protocol.conditions: Muscle tissue
reported.property: Recovery (%)
Numbers only, in %.

Dear colleague, could you please provide Recovery for the compounds listed below?
1. CN(C(=O)Cc1ccc(Cl)c(Cl)c1)[C@H](CN1CCCC1)c1ccccc1
2. CN(C(=O)Cc1ccc(Cl)c(Cl)c1)[C@H](CN1CCCC1)c1cccc(N/C(S)=N/c2ccc(-c3c4ccc(=O)cc-4oc4cc(O)ccc34)c(C(=O)O)c2)c1
3. CN(C(=O)Cc1ccc(Cl)c(Cl)c1)[C@H](CN1CCCC1)c1cccc(NC(=O)CNC(=O)C/N=C(S)/N=C2\C=CC(=C3c4ccc(O)cc4Oc4cc(O)ccc43)C(C(=O)O)=C2)c1
4. CN(C(=O)Cc1ccc(Cl)c(Cl)c1)[C@H](CN1CCCC1)c1cccc(NC(=O)C/N=C(S)/N=C2\C=CC(=C3c4ccc(O)cc4Oc4cc(O)ccc43)C(C(=O)O)=C2)c1

32
61
37
97

Give the value of Recovery reported for the following: `CN(C(=O)Cc1ccc(Cl)c(Cl)c1)[C@H](CN1CCCC1)c1cccc(NC(=O)CNC(=O)CNC(=O)CNC(=O)C/N=C(S)/N=C2\C=CC(=C3c4ccc(O)cc4Oc4cc(O)ccc43)C(C(=O)O)=C2)c1`
131

---

tested.on: Kappa-type opioid receptor (Cavia porcellus, UniProt P41144)
reported.property: pKi
One number for each entry, as −log10 of the molar value.

Give the value of pKi reported for the following: `CN(C(=O)Cc1ccc(Cl)c(Cl)c1)[C@H](CN1CCCC1)c1cccc(NC(=O)C/N=C(S)/N=C2\C=CC(=C3c4ccc(O)cc4Oc4cc(O)ccc43)C(C(=O)O)=C2)c1`
9.51

---

tested.on: Mu-type opioid receptor (Cavia porcellus, UniProt P97266)
Sequence (P97266 whole entry): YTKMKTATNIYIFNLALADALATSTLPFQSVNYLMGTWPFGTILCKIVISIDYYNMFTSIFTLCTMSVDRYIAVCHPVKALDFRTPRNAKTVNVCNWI
reported.property: pKi
One number for each entry, as −log10 of the molar value.

Give the value of pKi reported for the following: `CN(C(=O)Cc1ccc(Cl)c(Cl)c1)[C@H](CN1CCCC1)c1cccc(NC(=O)C/N=C(S)/N=C2\C=CC(=C3c4ccc(O)cc4Oc4cc(O)ccc43)C(C(=O)O)=C2)c1`
6.54

---

tested.on: Kappa-type opioid receptor (Cavia porcellus)
experimental.protocol: Inhibitory activity against Opioid receptor kappa 1 in electrically stimulated guinea pig longitudinal ileal muscle (GPI) preparation.
pIC50: −log10 of the molar value.
// label = satisfied if pIC50 is not less than 7, otherwise not satisfied

Some entries whose results are on file:
[
  {
    "molecule": "CN(C(=O)Cc1ccc(Cl)c(Cl)c1)[C@H](CN1CCCC1)c1cccc(NC(=O)CNC(=O)CNC(=O)CNC(=O)C/N=C(S)/N=C2\\C=CC(=C3c4ccc(O)cc4Oc4cc(O)ccc43)C(C(=O)O)=C2)c1",
    "discrete.label": "satisfied"
  },
  {
    "molecule": "CN(C(=O)Cc1ccc(Cl)c(Cl)c1)C(CN1CCCC1)c1ccc(NC(=O)CNC(=O)CNC(=O)CNC(=O)C/N=C(S)\\N=C2/C=CC(=C3c4ccc(O)cc4Oc4cc(O)ccc43)C(C(=O)O)=C2)cc1 (stereo not given)",
    "discrete.label": "not satisfied"
  },
  {
    "molecule": "CN(C(=O)Cc1ccc(Cl)c(Cl)c1)C(CN1CCCC1)c1ccc(N/C(S)=N/c2ccc(-c3c4ccc(=O)cc-4oc4cc(O)ccc34)c(C(=O)O)c2)cc1 (stereo not given)",
    "discrete.label": "satisfied"
  },
  {
    "molecule": "CN(C(=O)Cc1ccc(Cl)c(Cl)c1)[C@H](CN1CCCC1)c1cccc(NC(=O)CNC(=O)C/N=C(S)/N=C2\\C=CC(=C3c4ccc(O)cc4Oc4cc(O)ccc43)C(C(=O)O)=C2)c1",
    "discrete.label": "satisfied"
  }
]

# bool: pIC50 of CN(C(=O)Cc1ccc(Cl)c(Cl)c1)C(CN1CCCC1)c1ccc(NC(=O)CNC(=O)C/N=C(S)\N=C2/C=CC(=C3c4ccc(O)cc4Oc4cc(O)ccc43)C(C(=O)O)=C2)cc1 (stereo not given) >= 7
satisfied
